Target: Human full-length diacylglycerol:acylCoA acyltransferase 1 (DGAT-1) (Homo sapiens, UniProt O75907)
Construct: Human full-length diacylglycerol:acylCoA acyltransferase 1 (DGAT-1) was expressed in Sf9 insect cells; made in house; host or cells: Sf9 insect cells (baculovirus)
Sequence (O75907 whole entry): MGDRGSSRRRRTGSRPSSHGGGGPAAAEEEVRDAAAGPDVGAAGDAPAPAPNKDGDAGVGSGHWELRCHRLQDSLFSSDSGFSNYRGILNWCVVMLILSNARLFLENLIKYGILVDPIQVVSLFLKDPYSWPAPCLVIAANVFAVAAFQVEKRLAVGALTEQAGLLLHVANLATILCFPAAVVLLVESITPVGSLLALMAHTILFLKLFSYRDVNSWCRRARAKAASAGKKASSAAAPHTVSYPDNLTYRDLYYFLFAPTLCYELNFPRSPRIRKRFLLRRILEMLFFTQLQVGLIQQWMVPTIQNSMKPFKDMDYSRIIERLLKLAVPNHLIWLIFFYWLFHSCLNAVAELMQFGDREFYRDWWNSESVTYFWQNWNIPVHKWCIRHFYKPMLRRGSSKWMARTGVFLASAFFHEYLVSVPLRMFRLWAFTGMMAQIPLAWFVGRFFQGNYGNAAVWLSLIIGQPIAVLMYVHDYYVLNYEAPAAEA
Experiment: In vitro assay for DGAT-1 inhibition ([14C]decanoylCoA, Sf9 membrane fraction)
Assay type: biochemical
Conditions: apparent IC50, eight inhibitor concentrations 10 μM to 3 nM; read-out: IC50
Experimental: Human full-length diacylglycerol:acylCoA acyltransferase 1 (DGAT-1) was expressed in Sf9 insect cells which are then lysed and a crude membrane fraction (105,000×g pellet) was prepared. The cells were cultured as follows. […] Crude DGAT-1 microsomes were prepared as follows. […] The microsome concentration was determined using Bio-Rad Protein DC Protein Assay. […]
pIC50: −log10 of the molar value.
MEASURED QUANTITY: pIC50

CS(=O)(=O)NC(=O)C[C@H]1CC[C@H](c2ccc(N3CCOc4ncnc(N)c4C3=O)cc2)CC1    7.35

A: COC(=O)Cc1ccc(Oc2ccc(N3CCOc4ncnc(N)c4C3=O)cc2)cc1
B: C[C@@H]1CN(c2ccc([C@H]3CC[C@H](CC(N)=O)CC3)cc2)C(=O)c2c(N)ncnc2O1
For the pair A and B , which member has the lower pIC50 number? Give the chosen item's label as your response. A

A: CCOC(=O)C[C@H]1CC[C@H](c2ccc(N3CC(C)(C)Oc4ncnc(N)c4C3=O)cc2)CC1
B: Nc1ncnc2c1C(=O)N(c1ccc(C3CCC(CC(=O)O)CC3)cc1F)CCO2 (centres unmarked)
C: C[C@H]1COc2ncnc(N)c2C(=O)N1c1ccc([C@H]2CC[C@H](CC(=O)O)CC2)cc1
# rank_down: sort by pIC50, max first Response field: labels, in requested order. C, B, A

P: COC(=O)C[C@H]1CC[C@H](c2ccc(N3CCOc4nc(C)nc(N)c4C3=O)cc2)CC1
Q: COC(=O)C1C2C1[C@H]1C[C@@H]2C[C@@H]1c1ccc(N2CCOc3ncnc(N)c3C2=O)cc1 (some centres unmarked)
For the pair P and Q , which member has the lower pIC50 number? Give the chosen item's label as your response. P

The reported numbers originate from patent US7718645B2.
